Target: human GPR40 (Homo sapiens)
Sequence (O14842 whole entry): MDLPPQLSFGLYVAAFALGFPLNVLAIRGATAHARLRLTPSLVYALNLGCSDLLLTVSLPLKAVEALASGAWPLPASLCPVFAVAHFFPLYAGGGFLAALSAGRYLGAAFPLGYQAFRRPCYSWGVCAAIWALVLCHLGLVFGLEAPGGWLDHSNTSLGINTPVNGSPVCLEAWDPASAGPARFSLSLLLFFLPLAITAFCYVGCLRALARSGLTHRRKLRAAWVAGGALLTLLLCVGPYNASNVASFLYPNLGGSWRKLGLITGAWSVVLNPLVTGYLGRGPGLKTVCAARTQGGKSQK
Assay: GPR40 calcium flux assay, human GPR40
Details: HEK293 cells stably expressing GPR40; table does not say human or rat
ASSAY ENDPOINT: EC50 (nM)

CC1CCC(c2ccccc2)=C1COc1ccc(CCC(=O)O)c(Cl)c1 (stereo not drawn) | 2130

1: O=C(O)CCc1ccc(OCC2=C(Cc3ccccc3)CCC2)cc1C(F)(F)F
2: CC1CCC(COc2ccc(CCC(=O)O)c(C(F)(F)F)c2)=C1c1ccc(Cl)cc1 (stereo not drawn)
3: O=C(O)CCc1ccc(OCC2=C(C3CCCCC3)CCC2)cc1C(F)(F)F
Q: // ranking: key=EC50, reverse=True Give the order by naming the labels one after another as requested.
A: 2, 3, 1
(2: 164 nM, 3: 92 nM, 1: 55 nM)

====

Biological target: Human GPR120 short form (Homo sapiens)
Construct: expressed in transfected cells
Assay: Human GPR120 calcium flux assay, Procedure Calcium A (2500 cells/well)
Format: cell-based
pEC50: −log10 of the molar value.
ASSAY ENDPOINT: pEC50

A: Cc1cc(OCC2=C(c3ccc(Cl)cc3)CCC2)cc(C)c1CCC(=O)O
B: Cc1c(CCC(=O)O)ccc(OCC2=C(c3ccc(Cl)nc3)CCC2)c1C
C: Cc1c(CCC(=O)O)ccc(OCC2=C(c3ncccn3)CCC2)c1C
Q: Arrange the 3 molecules from largest to smallest pEC50. Answer by writing out the labels in the requested order.
A: B, A, C

====

Target: Human GPR120 short form (Homo sapiens, UniProt Q5NUL3)
Construct: expressed in transfected cells
Sequence (Q5NUL3 whole entry): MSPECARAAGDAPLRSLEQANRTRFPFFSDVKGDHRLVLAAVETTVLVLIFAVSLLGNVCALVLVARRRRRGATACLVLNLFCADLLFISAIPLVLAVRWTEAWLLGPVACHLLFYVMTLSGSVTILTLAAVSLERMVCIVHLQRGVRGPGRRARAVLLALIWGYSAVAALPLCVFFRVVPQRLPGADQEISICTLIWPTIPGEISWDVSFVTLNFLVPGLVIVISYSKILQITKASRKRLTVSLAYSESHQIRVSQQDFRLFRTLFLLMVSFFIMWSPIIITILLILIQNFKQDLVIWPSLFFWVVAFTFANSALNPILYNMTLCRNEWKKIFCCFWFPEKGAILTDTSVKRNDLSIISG
Assay: Human GPR120 calcium flux assay, Procedure Calcium A (2500 cells/well)
Format: cell-based
ASSAY ENDPOINT: EC50 (nM)

Here is how some molecules turned out for EC50.
O=C(O)CCc1c(F)c(F)c(OCC2=C(c3ccc(Cl)cc3)CCCC2)c(F)c1F | 958
CCOc1ccc(C2=C(COc3ccc(CCC(=O)O)c(C)c3C)CCCC2)cc1 | 2260
Cc1ccc(C2=C(COc3ccc(CCC(=O)O)c(F)c3F)CCC2)cc1F | 94

a: CCc1ccc(C2=C(COc3ccc(CCC(=O)O)c(C)c3C)CCC2)cc1
b: O=C(O)CCc1c(F)c(F)c(OCC2=C(c3ccc(Cl)cc3)CCC2)c(F)c1F
Q: Form field 'greater EC50' accepts a or b ; which applies? Indicate which entry you chose by stating its label.
A: b
(b: 453 nM, a: 256 nM)

====

Target: short form of the GPR120 receptor (Homo sapiens, UniProt Q5NUL3)
Sequence (P32121 whole entry partner, one chain of several): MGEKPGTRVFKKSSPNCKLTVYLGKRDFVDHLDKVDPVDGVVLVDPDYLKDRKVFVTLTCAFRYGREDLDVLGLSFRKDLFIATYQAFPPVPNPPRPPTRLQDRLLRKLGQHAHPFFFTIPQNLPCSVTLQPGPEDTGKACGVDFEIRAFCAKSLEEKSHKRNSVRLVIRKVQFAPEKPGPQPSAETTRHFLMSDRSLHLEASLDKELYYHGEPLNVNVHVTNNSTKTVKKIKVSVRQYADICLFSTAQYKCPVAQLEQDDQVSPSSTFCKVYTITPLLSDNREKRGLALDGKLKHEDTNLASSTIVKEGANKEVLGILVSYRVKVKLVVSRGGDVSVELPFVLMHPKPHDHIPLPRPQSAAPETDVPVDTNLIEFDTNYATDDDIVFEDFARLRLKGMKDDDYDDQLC
Assay: Human GPR120 DiscoveRx PathHunter Beta-Arrestin assay, Procedure β-arrestin B
pEC50: −log10 of the molar value.
ASSAY ENDPOINT: pEC50

Some entries whose results are on file:
Cc1ccc(C2=C(COc3ccc(CCC(=O)O)c(F)c3F)CCCC2)cc1F | 6.40
Cc1c(CCC(=O)O)ccc(OCC2=C(c3ccccn3)CCC2)c1C | 6.03
O=C(O)CCc1ccc(OCC2=C(c3ccc(Cl)cc3)CCCC2)c(F)c1F | 6.86

I: [2H]C(C(=O)O)C([2H])c1ccc(OCC2=C(c3ccc(Cl)cc3)CCC2)c(C)c1 (centres unmarked)
II: O=C(O)CCc1ccc(OCC2=C(c3ccc(Cl)cc3)CCC2C(F)(F)F)c(F)c1F (centres unmarked)
Q: Look at I and II . Which one has the lower recorded pEC50 number? Let me know the label of the one you choose.
A: II
(II: 6.69, I: 7.35)
